# subject_of_test: AChE (electric eel) (Electrophorus electricus (Electric eel) (Gymnotus electricus))
# Sequence (O42275 whole entry, looked up): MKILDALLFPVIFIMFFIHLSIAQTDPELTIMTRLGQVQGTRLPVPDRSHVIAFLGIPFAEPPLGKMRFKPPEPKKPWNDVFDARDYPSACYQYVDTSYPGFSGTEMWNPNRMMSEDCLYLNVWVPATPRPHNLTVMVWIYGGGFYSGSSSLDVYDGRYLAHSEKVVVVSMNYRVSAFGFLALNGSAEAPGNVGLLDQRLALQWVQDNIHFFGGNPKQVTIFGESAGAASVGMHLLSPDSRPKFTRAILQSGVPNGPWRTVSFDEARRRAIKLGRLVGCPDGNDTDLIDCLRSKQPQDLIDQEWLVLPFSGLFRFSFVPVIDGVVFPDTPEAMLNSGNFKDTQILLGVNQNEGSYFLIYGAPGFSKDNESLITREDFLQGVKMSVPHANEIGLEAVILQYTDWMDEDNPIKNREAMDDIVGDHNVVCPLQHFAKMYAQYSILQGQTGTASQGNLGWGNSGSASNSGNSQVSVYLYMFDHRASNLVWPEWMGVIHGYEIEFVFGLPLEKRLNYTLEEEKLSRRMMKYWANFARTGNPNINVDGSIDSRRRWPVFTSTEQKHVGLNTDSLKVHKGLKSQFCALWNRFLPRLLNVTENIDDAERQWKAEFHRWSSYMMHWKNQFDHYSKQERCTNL
# Format: biochemical
# particulars: acetylthiocholine iodide […], 10 min incubation, mean ± SEM, read-out: IC50 (μM) ChE EeAChE
test_readout: IC50

• C#CCN(C)Cc1cc2cc(OCCCN3CCN(Cc4ccccc4)CC3)ccc2n1C = > 100 µM
• C#CCN(C)Cc1cc2cc(OCCCN3CCC(Cc4ccccc4)CC3)ccc2n1C = 18.1 µM
• C#CCN(C)Cc1cc2cc(OCCN3CCC(Cc4ccccc4)CC3)ccc2n1C = > 100 µM
• C#CCN(C)Cc1cc2cc(OCCCCC3CCN(Cc4ccccc4)CC3)ccc2n1C = 0.26 µM
• C#CCN(C)Cc1cc2cc(OCC3CCN(Cc4ccccc4)CC3)ccc2n1C = 0.31 µM
• C#CCN(C)Cc1cc2cc(OCCC3CCN(Cc4ccccc4)CC3)ccc2n1C = 0.42 µM
